- Test system: HCV replicon
- Format: cell-based
- Assay conditions: normalized mean of HCV replicon readout
No end group written: not given here.

Substance: QRRGRTGRG [CPEP40]
HCV Norm MEAN: 0.7133
--
Substance: EVVLFLLNVF [CPEP31]
HCV Norm MEAN: 0.4448
--
Substance: GRPPLPPKQK [CPEP41]
HCV Norm MEAN: 0.9259
--
Substance: TGERDW [CPEP119]
HCV Norm MEAN: 0.3105
--
Substance: CPEP135: peptide of the viral peptide library; sequence page not shown (KGHRGSHTMNGH)
HCV Norm MEAN: 0.5732
--
Substance: PVHAGPIAP [CPEP87]
HCV Norm MEAN: 0.2137
--
Substance: CPEP74: peptide of the viral peptide library; sequence page not shown (ALGISYGRKKRRQ)
HCV Norm MEAN: 0.6842
--
Substance: RHFPRIW [CPEP146]
HCV Norm MEAN: 0.2243
--
Substance: WRHRAR [CPEP113]
HCV Norm MEAN: 0.1192
--
Substance: TIESEV [CPEP59]
HCV Norm MEAN: 0.1611
--
Substance: RPEPTAPPEE [CPEP116]
HCV Norm MEAN: 1.054
--
Substance: SAIASGIAVS [CPEP72]
HCV Norm MEAN: 1.456
--
Substance: CPEP86: peptide of the viral peptide library; sequence page not shown (SGFGPLITHG)
HCV Norm MEAN: 0.5296
--
Substance: GGKWSKLS [CPEP134]
HCV Norm MEAN: 0.2388
--
Substance: FPESLIL [CPEP76]
HCV Norm MEAN: 0.1881
--
Substance: EVLADNLPPP [CPEP90]
HCV Norm MEAN: 1.163
--
Substance: IVISDSEEE [CPEP121]
HCV Norm MEAN: 0.7416
--
Substance: RYSKRRHGRR [CPEP118]
HCV Norm MEAN: 0.2514
--
Substance: KKTKSLP [CPEP75]
HCV Norm MEAN: 0.2042
--
Substance: LRKRRKRL [CPEP145]
HCV Norm MEAN: 0.1172
--
Substance: CPEP61: peptide of the viral peptide library; sequence page not shown (KRRKSGAKRR)
HCV Norm MEAN: 0.1619
--
Substance: RQARRNRRR [CPEP110]
HCV Norm MEAN: 0.05205
--
Substance: CPEP153: peptide of the viral peptide library; sequence page not shown (GRKKRRQRRR)
HCV Norm MEAN: 0.3202
--
Substance: GARASVLS [CPEP108]
HCV Norm MEAN: 0.178
--
Substance: RHIICHGGVI [CPEP133]
HCV Norm MEAN: 0.3927
--
Substance: CPEP14: peptide of the viral peptide library; sequence page not shown (ILHTPGCVPCVR)
HCV Norm MEAN: 0.5608
--
Substance: IQIGNHNAM [CPEP67]
HCV Norm MEAN: 0.7713
--
Substance: RRRETQV [CPEP148]
HCV Norm MEAN: 0.1353
--
Substance: LGQGVSIEW [CPEP122]
HCV Norm MEAN: 0.594
--
Substance: CPEP63: peptide of the viral peptide library; sequence page not shown (KARHKRRNRSSRS)
HCV Norm MEAN: 0.5995
--
Substance: PVQLSYYD [CPEP144]
HCV Norm MEAN: 0.1325
--
Substance: CPEP140: peptide of the viral peptide library; sequence page not shown (RKKRRQRRRA)
HCV Norm MEAN: 0.5668
--
Substance: FVKSNWGLF [CPEP101]
HCV Norm MEAN: 0.5497
--
Substance: CPEP71: viral library peptide from HIV1 Integrase, targets IPO7 (WKGPAKLLWKG)
HCV Norm MEAN: 0.4108
--
Substance: AAAVAFL [CPEP117]
HCV Norm MEAN: 0.1615
--
Substance: CPEP142: peptide of the viral peptide library; sequence page not shown (LGIVCPICSQKP)
HCV Norm MEAN: 0.308
--
Substance: KLVTELAENS [CPEP129]
HCV Norm MEAN: 0.8005
